Tested on: Pseudomonas aeruginosa PAO1 planktonic cells
Format: cell-based
Conditions: PAO1, 24 h
Procedure: Minimal inhibitory concentrations (MIC) of the peptides were determined in Mueller Hinton (MH) medium (Difco Laboratories, Detroit, MI, USA) by the broth microdilution assay following recommendations of the Clinical and Laboratory Standards Institute (CLSI, formerly NCCLS) with some modifications. […]
Where a SMILES comes first, the peptide text is derived from it. The star is where a group is joined. Butanoyl(2,2-Me2) = CCC(C)(C)C(=O)*; Octanoyl(6-Me) = CCC(C)CCCCC(=O)*
Catalogue of MBC (minimal bactericidal concentration) readings, one per entry.
assay readout: MBC (minimal bactericidal concentration)

compound	assay readout	result
CC[C@H](C)[C@H](NC(=O)[C@H](CCCNC(=N)N)NC(=O)[C@@H](NC(=O)[C@H](CCCNC(=N)N)NC(=O)[C@H](Cc1c[nH]c2ccccc12)NC(=O)[C@H](Cc1ccccc1)NC(=O)[C@H](Cc1ccccc1)NC(=O)[C@@H]1CCCN1)[C@@H](C)CC)C(=O)N[C@@H](CCCNC(=N)N)C(=O)N[C@@H](CCCNC(=N)N)C(N)=O [LF11-324] (H-PFFWRIRIRR-NH2)	MBC (minimal bactericidal concentration)	8 µg/mL
CCC(C)CCCCC(=O)N[C@@H](Cc1ccccc1)C(=O)N[C@@H](Cc1c[nH]c2ccccc12)C(=O)N[C@@H](CCCNC(=N)N)C(=O)N[C@@H](CCCNC(=N)N)C(=O)N[C@@H](Cc1ccccc1)C(=O)N[C@@H](Cc1c[nH]c2ccccc12)C(=O)N[C@@H](CCCNC(=N)N)C(=O)N[C@@H](CCCNC(=N)N)C(N)=O (stereo partly shown) [6-MO-LF11-227] ({Octanoyl(6-Me)}-FWRRFWRR-NH2)	MBC (minimal bactericidal concentration)	128 µg/mL
N=C(N)NCCC[C@H](NC(=O)[C@H](CCCNC(=N)N)NC(=O)[C@H](Cc1c[nH]c2ccccc12)NC(=O)[C@H](Cc1ccccc1)NC(=O)[C@H](CCCNC(=N)N)NC(=O)[C@H](CCCNC(=N)N)NC(=O)[C@H](Cc1c[nH]c2ccccc12)NC(=O)[C@@H](N)Cc1ccccc1)C(N)=O [LF11-227] (H-FWRRFWRR-NH2)	MBC (minimal bactericidal concentration)	64 µg/mL
CC[C@H](C)[C@H](NC(=O)[C@H](CCCNC(=N)N)NC(=O)[C@@H](NC(=O)[C@H](CCCNC(=N)N)NC(=O)[C@H](Cc1c[nH]c2ccccc12)NC(=O)[C@H](Cc1ccccc1)NC(=O)[C@@H]1CCCN1C(=O)C(C)(C)CC)[C@@H](C)CC)C(=O)N[C@@H](CCCNC(=N)N)C(=O)N[C@@H](CCCNC(=N)N)C(N)=O [DI-MB-LF11-322, 2,2-dimethylbutanoyl-PFWRIRIRR] ({Butanoyl(2,2-Me2)}-PFWRIRIRR-NH2)	MBC (minimal bactericidal concentration)	32 µg/mL

These measurements were taken from paper PMC4491869.
